Test: clinical
Settings: male, human, in vivo, 1000 mg
PROPERTY NAME: AUC(0-t) (ng·h/mL)
State just the number; it will be interpreted in ng·h/mL.

# input Look up AUC(0-t) for this compound: CN(C)C(=N)N=C(N)N [metformin]
# output 10900

----------
Experiment: clinical
Details: human, in vivo, 1000 mg, Cmax, subject S9
PROPERTY NAME: Cmax

# input compound: CN(C)C(=N)N=C(N)N [metformin] ; wanted: its Cmax
# output 1170 ng/mL

----------
Assay: clinical
Settings: male, human, in vivo, po, 1000 mg
PROPERTY NAME: AUC (ng·h/mL)
Please give a number only; it is taken to be in ng·h/mL.

# input Fill in the blank: the reported AUC of CN(C)C(=N)N=C(N)N [metformin] is ____.
# output 9510
